Values were extracted from paper PMC5540273.

# Test system: SGK3;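 note: KINOMEscan kinase panel screen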
# EXPERIMENTAL_SETUP: concentration: 1 μM,replicates: in singlicate; n = 1
This section presents compounds with their documented %Inh values.
ASSAY_ENDPOINT: %Inh (%)

{"COMPOUND": "c1ccc(Oc2ccc(Nc3ccnc4ccc(-c5ccccn5)cc34)cc2)cc1 [GW407034]", "STUDY_SYSTEM": "SGK3", "U": "%", "VAL": 0}
{"COMPOUND": "C[C@@H](Oc1cc(-n2cnc3cc(-c4cnn(C)c4)ccc32)sc1C(N)=O)c1ccccc1Cl [GSK580432]", "STUDY_SYSTEM": "SGK3", "U": "%", "VAL": 0}
{"COMPOUND": "CN1CCN(CCNc2nc3cc(Oc4ccc(NC(=O)Nc5cc(C(F)(F)F)ccc5F)cc4)ccc3[nH]2)CC1.Cl.Cl [GW768504]", "STUDY_SYSTEM": "SGK3", "U": "%", "VAL": 0}
{"COMPOUND": "Cn1ccc2ncnc(Oc3ccc(NC(=O)Nc4ccnc(C(F)(F)F)c4)c(Cl)c3)c21", "STUDY_SYSTEM": "SGK3", "U": "%", "VAL": 0}
{"COMPOUND": "CC(C)S(=O)(=O)N1CCN(Cc2ccc3c(c2)nc(NC(=O)c2ccsc2)n3C[C@H](O)c2ccccc2)CC1 [GW635815]", "STUDY_SYSTEM": "SGK3", "U": "%", "VAL": 3}
{"COMPOUND": "CN(c1ccccc1CNc1nc(Nc2ccc3c(c2)CC(=O)N3)ncc1C(F)(F)F)S(C)(=O)=O", "STUDY_SYSTEM": "SGK3", "U": "%", "VAL": 32}
{"COMPOUND": "COc1cccc(OC)c1C(=O)Nc1cccc(-c2nn3ccccc3c2-c2ccnc(Nc3cccc(F)c3)n2)c1 [GSK361065]", "STUDY_SYSTEM": "SGK3", "U": "%", "VAL": 65}
{"COMPOUND": "NC(=O)c1ccc(-c2cc3ncnc(SCC(=O)O)c3s2)cc1", "STUDY_SYSTEM": "SGK3", "U": "%", "VAL": 0}
